System: PRKACA (mouse)
Assay: split-luciferase competition binding
Settings: compound 10.0 µM; accession and sequence are those of the human protein

{"SMI": "O=C1NC(=O)c2c1c1c3ccccc3n3c1c1c2c2ccccc2n1C1CCC3O1", "UNIT_ABBREVIATION": "%", "inhibition": 65}
{"SMI": "Cc1cc(I)ccc1Nc1c(C(=O)NOCC2CC2)cc(F)c(F)c1F", "UNIT_ABBREVIATION": "%", "inhibition": 0}
{"SMI": "O=c1cc(N2CCOCC2)oc2c(-c3ccccc3)cccc12", "UNIT_ABBREVIATION": "%", "inhibition": 0}
{"SMI": "O=C1NC(=O)c2c1c1c3ccccc3[nH]c1c1[nH]c3ccccc3c21", "UNIT_ABBREVIATION": "%", "inhibition": 27}
{"SMI": "COc1nccc(-c2c(-c3ccc(F)cc3)ncn2[C@H]2CC[C@H](O)CC2)n1", "UNIT_ABBREVIATION": "%", "inhibition": 0}

All figures here come from the kinase profiling compilation of Christmann-Franck et al. (2016).
